- experiment.notes: qHTS assay to identify aromatase inhibitors - cell viability counter screen (AID 743084);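 note: cells stimulated with testosterone during compound exposure; nearly all actives have a fitted effect of over 55% in size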
- protocol.conditions: MCF-7 aro ERE viability, CellTiter-Fluor, 24 h; series mostly up to 70.3 µM
Inconclusive results are not listed. The source made the active and inactive calls. Calls come from the whole dose curve; as a rule, active = well fitted cell-killing curve with a large enough effect in the repeat runs; inconclusive = weak or mixed curves, or effect the other way; inactive = no such curve, though single readings can be large or run the other way.
quantity: outcome

compound=COc1cc(C[C@H](C)N)c(OC)cc1C result_value=inactive
compound=CCN(CC)/[N+]([O-])=N/O result_value=inactive
compound=COC(=O)[C@@H]1[C@H]2CC[C@@H](C[C@H]1OC(=O)c1ccccc1)N2C result_value=inactive
compound=COC1=CC=C2[C@H]3Cc4ccc(OC)c5c4[C@@]2(CCN3C)[C@H]1O5 result_value=inactive
compound="C[N+]1(C)[C@@H]2CC[C@H]1CC(OC(=O)c1c[nH]c3ccccc13)C2 (stereo partly specified)" result_value=inactive
compound="CN1c2ccccc2C(NCCCCCCC(=O)O)c2ccc(Cl)cc2S1(=O)=O (stereo unspecified)" result_value=inactive
compound="CC(=O)OC1CN2CCC1CC2 (stereo unspecified)" result_value=inactive
compound="O=C(CS(=O)C(c1ccccc1)c1ccccc1)NO (stereo unspecified)" result_value=inactive
compound=Clc1ccc2c(c1)C(c1ccccc1)=NCc1nncn1-2 result_value=inactive
compound=CN1CCCC(=C(c2cccs2)c2cccs2)C1 result_value=inactive
compound=CCCCCN(C)CCC(O)(P(=O)(O)O)P(=O)(O)O result_value=inactive
